# System under test: Sialic acid-binding Ig-like lectin 9 (Homo sapiens) (UniProt Q9Y336)
# Sequence (Q9Y336 whole entry): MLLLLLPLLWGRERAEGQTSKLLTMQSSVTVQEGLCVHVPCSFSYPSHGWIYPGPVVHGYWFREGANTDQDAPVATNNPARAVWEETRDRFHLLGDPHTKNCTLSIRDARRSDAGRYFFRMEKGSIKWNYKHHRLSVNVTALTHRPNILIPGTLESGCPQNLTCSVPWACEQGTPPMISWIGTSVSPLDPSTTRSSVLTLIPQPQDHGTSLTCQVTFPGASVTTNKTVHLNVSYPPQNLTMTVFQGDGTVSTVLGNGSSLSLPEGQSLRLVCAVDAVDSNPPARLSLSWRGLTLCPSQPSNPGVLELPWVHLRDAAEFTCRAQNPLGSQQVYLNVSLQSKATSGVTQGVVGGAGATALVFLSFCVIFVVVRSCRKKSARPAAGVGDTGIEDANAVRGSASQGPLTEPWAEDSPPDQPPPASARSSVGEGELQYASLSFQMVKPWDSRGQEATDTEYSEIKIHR
# Test summary: Hs-Siglec9 ALPHAscreen SOP 20170721
# Design: scale not given: direction of the effect not stated beside the values
# Test settings: 10 µM
Result type: Percent Effect (%)
Could you give me the number in %? Just the number is fine.

Before answering, review these 5 worked examples.
Compound: O=C(NCCNC(=O)N1CCC(c2ccccc2)C1)C1CC1 (configuration not stated)
Percent Effect (%): 22
--
Compound: Cc1cc(C)n(C2CCCN(C(=O)C3=NN(C)C(=O)CC3)C2)n1 (configuration not stated)
Percent Effect (%): -2.77
--
Compound: CN(C)C(=O)CNC(=O)c1cc(Br)c2c(c1)OCCO2
Percent Effect (%): 7.31
--
Compound: CC(C)(C)C(=O)NCCn1ccc(-c2ccncc2)n1
Percent Effect (%): 4.58
--
Compound: CCN(CC1CN(CCc2ccccn2)CCO1)c1cccnn1 (configuration not stated)
Percent Effect (%): -0.0186

Req: Could you share which Percent Effect value was measured for CCN(CC)Cc1ccc(C(=O)N2CCCCC2Cn2cccn2)o1 (configuration not stated) ?
Resp: 4.06

Req: Then COc1ccc(C2OC(COc3ccccc3Br)=NN2C(C)=O)cc1 (configuration not stated) ?
Resp: -8.22

Req: Another compound to look at: CC(C(=O)Nc1ccc(N2CCCC2)nc1)n1cncn1 (configuration not stated)
Resp: 18.1

Req: And the next one, CC(C)NC(=O)NCCCc1cc(N)n(-c2ccccc2)n1 ?
Resp: 15.8

Req: Also check CCS(=O)(=O)N1CCC(c2nc3ccc(-c4ccccc4)cn3n2)CC1
Resp: 0.509

Req: Another: c1nc(N2CCCCC2Cn2cncn2)c2ccsc2n1 (configuration not stated)
Resp: 35.1

Req: Item: Cc1ccc(C(=O)N2CCN(C(=O)Nc3ccccn3)CC2)o1
Resp: -0.542

====

# System under test: Protein translocase subunit SecA (Escherichia coli (strain K12))
# Test summary: Assay to Identify E. coli SecA ATPase Inhibitors
# Format: functional
# Set-up: scale not given: direction of the effect not stated beside the values
# Test settings: 30 µM
Measured potencies and affinities stand elsewhere.
Result type: Percent Effect (%)
The reply should contain only the number, in %.

Compound: Cc1nocc1C(=O)N1CCc2c(CN(C)C(C)C)n[nH]c2C1
Measurement units: %
Percent Effect: 1.54

Compound: Cc1ccc(CC(=O)N2CCCC(c3nc(C)cs3)C2)cn1 (centres undefined)
Measurement units: %
Percent Effect: -5.58

Compound: Cc1cc(C)c(CNC(=O)NCCOc2ccc3c(c2)CCC3)c(=O)[nH]1
Measurement units: %
Percent Effect: -3.48

Compound: Cc1nc(C)n(CC2CCCN(Cc3nnc(-c4ccco4)o3)C2)n1 (centres undefined)
Measurement units: %
Percent Effect: -3.02

Req: Fill in the blank: the reported Percent Effect of COc1ccc(C2SC(C)=Nc3c2c(=O)[nH]n3C2CCCCC2)cc1O (centres undefined) is ____.
Resp: 1.71

Req: Same read-out for Cc1cccc(NC(=O)CNC(=O)Cn2ncc(Cl)c(Cl)c2=O)c1C ?
Resp: -1.81

Req: Quick one: COCC(NC(=O)c1cnn(C)c1)c1cccc(C(F)(F)F)c1 (centres undefined)
Resp: -8.86

Req: Same again, this time with CN(C)Cc1nnc(C2CCN(c3nccc(N)n3)CC2)n1C1CC1
Resp: -4.19

Req: How about this compound: Cc1cc(C)c(CNC(=O)NCC2CCCO2)c(=O)[nH]1 (centres undefined)
Resp: -9.94

Measured values drawn from ChEMBL document CHEMBL3988442 for this set.
